- protocol-details: Absorption of methanol solutions of the dyes (λmax and density at 400, 450, 500 nm)
- Type: physicochemical
- applied-conditions: density measured at 450 nm; methanol solution with density 0.6 at λmax
Reported D450 values for a set of molecules
measured-property: D450

molecule="CCCCS(=O)(=O)Nc1ccc(C2=NOC(=O)/C2=C\\C2CN(CCC(=O)OCC)c3ccccc32)cc1 (stereo not drawn) [E]" assay_result=0.50
molecule="CCCCS(=O)(=O)Nc1ccc(C2=NOC(=O)/C2=C\\C2CN(CCC(=O)OCC)c3ccccc32)cc1 (stereo not drawn) [D]" assay_result=0.00
molecule=C=CCn1cccc1/C=C1\C(=O)ON=C1C(C)(C)C assay_result=0.17
molecule=CCOC(=O)CCn1cccc1/C=C1\C(=O)ON=C1c1ccc(OC)cc1 assay_result=0.22
molecule=COc1ccc(C2=NOC(=O)/C2=C\c2ccc[nH]2)cc1 assay_result=0.08
molecule="CCCCS(=O)(=O)Nc1ccc(C2=NOC(=O)/C2=C\\C2CN(CCC(=O)OCC)c3ccccc32)cc1 (stereo not drawn) [Compound G]" assay_result=0.55
molecule="CCCCS(=O)(=O)Nc1ccc(C2=NOC(=O)/C2=C\\C2CN(CCC(=O)OCC)c3ccccc32)cc1 (stereo not drawn) [F]" assay_result=0.54
molecule=CCOC(=O)Cn1cccc1/C=C1\C(=O)ON=C1c1ccc(OC)cc1 assay_result=0.21
molecule="CCCCS(=O)(=O)Nc1ccc(C2=NOC(=O)/C2=C\\C2CN(CCC(=O)OCC)c3ccccc32)cc1 (stereo not drawn) [C]" assay_result=0.03
molecule=C=CCn1cccc1/C=C1\C(=O)ON=C1c1ccc(NS(=O)(=O)CCCC)cc1 assay_result=0.24
molecule="CCCCS(=O)(=O)Nc1ccc(C2=NOC(=O)/C2=C\\C2CN(CCC(=O)OCC)c3ccccc32)cc1 (single isomer, unassigned) [B]" assay_result=0.53
molecule="CCCCS(=O)(=O)Nc1ccc(C2=NOC(=O)/C2=C\\c2cccn2C(CC)C(=O)OCCOCC)cc1 (stereo not drawn)" assay_result=0.03

====

- protocol-details: Solubility in tricresylphosphate and crystallization tendency on cooling
- Type: physicochemical
- applied-conditions: tricresylphosphate solution cooled at room temperature
measured-property: Not-to-Crystallize Tendency

compound="CCCCS(=O)(=O)Nc1ccc(C2=NOC(=O)/C2=C\\C2CN(CCC(=O)OCC)c3ccccc32)cc1 (stereo not shown) [Compound G]" measured_property="Not-to-Crystallize Tendency" assay_result="not good"
compound="CCCCS(=O)(=O)Nc1ccc(C2=NOC(=O)/C2=C\\C2CN(CCC(=O)OCC)c3ccccc32)cc1 (stereo not shown) [E]" measured_property="Not-to-Crystallize Tendency" assay_result="not good"
compound="CCCCS(=O)(=O)Nc1ccc(C2=NOC(=O)/C2=C\\c2cccn2C(CC)C(=O)OCCOCC)cc1 (stereo not shown)" measured_property="Not-to-Crystallize Tendency" assay_result=good
compound="CCCCS(=O)(=O)Nc1ccc(C2=NOC(=O)/C2=C\\C2CN(CCC(=O)OCC)c3ccccc32)cc1 (stereo not shown) [F]" measured_property="Not-to-Crystallize Tendency" assay_result="not good"

====

- protocol-details: Absorption of methanol solutions of the dyes (λmax and density at 400, 450, 500 nm)
- Assay type: physicochemical
- applied-conditions: density measured at 400 nm; methanol solution with density 0.6 at λmax
measured-property: D400

molecule="CCCCS(=O)(=O)Nc1ccc(C2=NOC(=O)/C2=C\\C2CN(CCC(=O)OCC)c3ccccc32)cc1 (stereo not shown) [D]" measured_property=D400 assay_result=0.35
molecule=CCOC(=O)Cn1cccc1/C=C1\C(=O)ON=C1c1ccc(OC)cc1 measured_property=D400 assay_result=0.47
molecule="CCCCS(=O)(=O)Nc1ccc(C2=NOC(=O)/C2=C\\c2cccn2C(CC)C(=O)OCCOCC)cc1 (stereo not shown)" measured_property=D400 assay_result=0.42
molecule="CCCCS(=O)(=O)Nc1ccc(C2=NOC(=O)/C2=C\\C2CN(CCC(=O)OCC)c3ccccc32)cc1 (stereo not shown) [E]" measured_property=D400 assay_result=0.26

====

Reported λmax (nm) values for a set of compounds
- protocol-details: Absorption of methanol solutions of the dyes (λmax and density at 400, 450, 500 nm)
- Format: physicochemical
- applied-conditions: methanol solution, density 0.6 at λmax
measured-property: λmax (nm)

compound="CCCCS(=O)(=O)Nc1ccc(C2=NOC(=O)/C2=C\\C2CN(CCC(=O)OCC)c3ccccc32)cc1 (stereo not drawn) [C]" measured_property="λmax (nm)" assay_result=377
compound=CCOC(=O)Cn1cccc1/C=C1\C(=O)ON=C1c1ccc(OC)cc1 measured_property="λmax (nm)" assay_result=419
compound="CCCCS(=O)(=O)Nc1ccc(C2=NOC(=O)/C2=C\\c2cccn2C(CC)C(=O)OCCOCC)cc1 (stereo not drawn)" measured_property="λmax (nm)" assay_result=423
compound=CCOC(=O)CCn1cccc1/C=C1\C(=O)ON=C1c1ccc(OC)cc1 measured_property="λmax (nm)" assay_result=420
compound=C=CCn1cccc1/C=C1\C(=O)ON=C1c1ccc(NS(=O)(=O)CCCC)cc1 measured_property="λmax (nm)" assay_result=421
compound=C=CCn1cccc1/C=C1\C(=O)ON=C1C(C)(C)C measured_property="λmax (nm)" assay_result=415
compound="CCCCS(=O)(=O)Nc1ccc(C2=NOC(=O)/C2=C\\C2CN(CCC(=O)OCC)c3ccccc32)cc1 (stereo not drawn) [E]" measured_property="λmax (nm)" assay_result=437
compound="CCCCS(=O)(=O)Nc1ccc(C2=NOC(=O)/C2=C\\C2CN(CCC(=O)OCC)c3ccccc32)cc1 (single isomer, unassigned) [B]" measured_property="λmax (nm)" assay_result=463
compound=COc1ccc(C2=NOC(=O)/C2=C\c2ccc[nH]2)cc1 measured_property="λmax (nm)" assay_result=418
compound="CCCCS(=O)(=O)Nc1ccc(C2=NOC(=O)/C2=C\\C2CN(CCC(=O)OCC)c3ccccc32)cc1 (stereo not drawn) [D]" measured_property="λmax (nm)" assay_result=374
compound="CCCCS(=O)(=O)Nc1ccc(C2=NOC(=O)/C2=C\\C2CN(CCC(=O)OCC)c3ccccc32)cc1 (stereo not drawn) [F]" measured_property="λmax (nm)" assay_result=437
compound="CCCCS(=O)(=O)Nc1ccc(C2=NOC(=O)/C2=C\\C2CN(CCC(=O)OCC)c3ccccc32)cc1 (stereo not drawn) [Compound G]" measured_property="λmax (nm)" assay_result=438

====

- protocol-details: Absorption of methanol solutions of the dyes (λmax and density at 400, 450, 500 nm)
- Type: physicochemical
- applied-conditions: density measured at 400 nm; methanol solution with density 0.6 at λmax
measured-property: D400

compound=C=CCn1cccc1/C=C1\C(=O)ON=C1c1ccc(NS(=O)(=O)CCCC)cc1 measured_property=D400 assay_result=0.41
compound="CCCCS(=O)(=O)Nc1ccc(C2=NOC(=O)/C2=C\\C2CN(CCC(=O)OCC)c3ccccc32)cc1 (centres unmarked) [Compound G]" measured_property=D400 assay_result=0.27
compound=CCOC(=O)CCn1cccc1/C=C1\C(=O)ON=C1c1ccc(OC)cc1 measured_property=D400 assay_result=0.44
compound=C=CCn1cccc1/C=C1\C(=O)ON=C1C(C)(C)C measured_property=D400 assay_result=0.52
compound="CCCCS(=O)(=O)Nc1ccc(C2=NOC(=O)/C2=C\\C2CN(CCC(=O)OCC)c3ccccc32)cc1 (centres unmarked) [C]" measured_property=D400 assay_result=0.45
compound="CCCCS(=O)(=O)Nc1ccc(C2=NOC(=O)/C2=C\\C2CN(CCC(=O)OCC)c3ccccc32)cc1 (single isomer, unassigned) [B]" measured_property=D400 assay_result=0.09
compound="CCCCS(=O)(=O)Nc1ccc(C2=NOC(=O)/C2=C\\C2CN(CCC(=O)OCC)c3ccccc32)cc1 (centres unmarked) [F]" measured_property=D400 assay_result=0.28
compound=COc1ccc(C2=NOC(=O)/C2=C\c2ccc[nH]2)cc1 measured_property=D400 assay_result=0.48

Values from patent US6518005B2
